- Test system: B. cepacia (ATCC 25416)
- assay-notes: MIC and synergy test (Kull method)
- Type: cell-based
- particulars: compound or premix acting alone
// reported MIC of the compound acting alone (QA, QB) for each item listed
# output: bare number, implied unit %

Use the examples below as a reference point.
molecule | measured-target | endpoint-unit | observed
CC1CCC(C(C)C)C(O)C1 (racemic) | B. cepacia (ATCC 25416) | % | 0.69
CCCCC(O)CO (centres unmarked) | B. cepacia (ATCC 25416) | % | 0.625

**Query** Requested read-out: MIC of the compound acting alone (QA, QB). Entry: CCCCCCCCC(O)CO (centres unmarked)
**Result** 0.0625

**Query** Return reported MIC of the compound acting alone (QA, QB); argument: `CCC(=O)O`
**Result** 0.20

**Query** Please report the recorded MIC of the compound acting alone (QA, QB) for `OCCc1ccccc1` .
**Result** 0.156

---

- System: S. aureus (ATCC 6538)
- assay-notes: MIC and synergy test (Kull method)
- Type: cell-based
- particulars: compound or premix acting alone
- Protocol: The cumulative synergistic activity of propylene carbonate, organic compounds/preservative compounds are performed against selected microbial strains. Tryptic Soy Broth (TSB) media was used for bacterial evaluations and Yeast Malt Broth (YMB) for fungal evaluations. The compounds were added to the media and serially diluted. […] Synergism was determined by a commonly used and accepted method described by Kull A. C.; Eisman, P. C.; Sylwestrowicz, H. D. and Mayer, R. L. 1961. […]
# MIC of the compound acting alone (QA, QB) per record follows
Write down the numeric answer in % and omit the unit.

The following compounds have reported results that may help.
compound | observed
CCCCCCCC(=O)NO [CHA, Capryl Hydroxamic Acid] | 0.125
CC1CCC(C(C)C)C(O)C1 (racemic) | 0.69
CCCCCCC(O)CO (stereo not shown) | 0.625

Here is another compound to look at.
**Query** Need MIC of the compound acting alone (QA, QB), item CCCCC(O)CO (stereo not shown)
**Result** 2.5

---

- Test system: P. aeruginosa (ATCC 9027)
- assay-notes: MIC and synergy test (Kull method)
- Type: cell-based
- particulars: compound or premix acting alone
observable: MIC of the compound acting alone (QA, QB)

**Query** Please give the measured MIC of the compound acting alone (QA, QB) for this compound: CCCCCCCCC(O)CO (stereo not shown)
**Result** >2.5%

---

MIC of the compound acting alone (QA, QB) by entry:
- System: P. aeruginosa (ATCC 9027)
- assay-notes: MIC and synergy test (Kull method)
- Format: cell-based
- particulars: compound or premix acting alone

compound | measured-target | observed
CCCCCCC(O)CO (stereo not drawn) | P. aeruginosa (ATCC 9027) | 0.625%
CCCCC(O)CO (stereo not drawn) | P. aeruginosa (ATCC 9027) | 1.25%

// next item, MIC of the compound acting alone (QA, QB) requested
**Query** Can you look up MIC of the compound acting alone (QA, QB) on P. aeruginosa (ATCC 9027) for CC1COC(=O)O1 (stereo not drawn) [PC, Propylene Carbonate] ?
**Result** 3.12%
